Quick list: PBM binding z-score per entry.
tested on: RXRa DBDmut IVT, anti-RXR (DBD mutation: RXRa K156A/R161A, NR concentration 90 nM); assay: PBM binding z-score (relative to random genomic background probes); higher = stronger binding; sequences stand for … in GC…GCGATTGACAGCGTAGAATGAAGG
Write the number on its own, no unit after it.

// solved cases for PBM binding z-score follow
TCAGACAGGTGTAGGTAACTCAGGTACGCAGTCG 1.07
ATCTCTAGGTAACCAAGATCAGTGAATGCCGAAC -0.167
CCTCGGAGGACACAAGGTCAGAGCTGTCCGCTTT 0.757
CCGACTGGGGCAAGGTTACGATAACGCACAGCCA -0.192
AATACAGCGTCACTAGGCCAGAGTAGGTACGAAT -0.271

I have this sequence here, ACTAGCAGGCCACGGGTCACTCAAGATTAGTCCG , and I need its recorded PBM binding z-score.
0.0998

Consider next the sequence CCTTACGGGTCACTGACAGGTTATAGCTTTTGGA in the same way.
1.64

Consider next the sequence GCGACTGGGGCATCACCAGGTTACCATAACTTAA in the same way.
-0.237

* * *

Quick list: PBM binding z-score per entry.
tested on: LXRb:RXRa (NR concentration 270 nM, RXRa partner concentration 90 nM); assay: PBM binding z-score (relative to random genomic background probes); higher = stronger binding; sequences stand for … in GC…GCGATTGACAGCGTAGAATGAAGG

GCAGACAGGTGAAACGCAGGTAACTCTGGGTGGC -0.472

Hi! What's the reported PBM binding z-score for GCTTGTAGTTCAAGGTTAAGAAAGACTAAGCTAA on LXRb:RXRa (NR concentration 270 nM, RXRa partner concentration 90 nM)?
1.53

Consider next the sequence CATACAGGGTCAGCTAGGCAAGAGTAGGGACGGC in the same way.
1.96

* * *

tested on: RARb homodimer (NR concentration 270 nM); assay: PBM binding z-score (relative to random genomic background probes); higher = stronger binding; sequences stand for … in GC…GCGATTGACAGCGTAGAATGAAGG
Quick list: PBM binding z-score per entry.
Write the number on its own, no unit after it.

// solved cases for PBM binding z-score follow
ATATGTAGGTTAAGGGTCATACAGGTTGGTTCGC 4.12
ATCTCTAGGTAACCAAATTCAGTGAATGCCGAAC 0.339
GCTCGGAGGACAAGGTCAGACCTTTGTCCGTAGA 3.1
CCTTACGGGTCACTCCTGGTTATAGCATCGGAGT 2.89
ATATGTAGGTTAGCTGGGGTCATTAAGACTAGGC 3.6

Hi! What's the reported PBM binding z-score for TCTCGGAGGACAAGAAGGTCAGAGCTTTCCAGAG on RARb homodimer (NR concentration 270 nM)?
3.34

Consider next the sequence TCTGCTAGGTCAACGATGGTCAGCTCATCTGCTA in the same way.
3.24

Consider next the sequence CAACCTAGGTCAGGGCCAGTATAGGAGGAACGTT in the same way.
2.7

Consider next the sequence GCGCCTGGGGCAAAGCAGGTTACCATAAGGTTGG in the same way.
0.951

Consider next the sequence ATACCAAGGTGATCGTGCGGTCGTTGATACTAAC in the same way.
0.887

* * *

test system: PPARg:RXRa DBDmut IVT, anti-RXR (DBD mutation: RXRa K156A/R161A, NR concentration 270 nM, RXRa partner concentration 90 nM); test: PBM binding z-score (relative to random genomic background probes); higher = stronger binding; sequences stand for … in GC…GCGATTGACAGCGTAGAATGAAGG
assay.metric: PBM binding z-score
Write the number on its own, no unit after it.

// solved cases for PBM binding z-score follow
AATACAGGGTCATCGTGGGCCAGAGTACGCACAG 2.57
TCTAGTTGGTCAAAGATCACACACTCGAAATGCG 2.51
CGTCCAAAGTCATAGGAGGTCAGTGAAGACAGAT 0.497
ACAGACAGGTGAGGGAAGGTAACTCAGCTGGACG 0.476
CGTCCAAGGTGATAGGAGGTCAGTGAAGACAGAT 1.37

I have this sequence here, ACAGACAGGTGATGAAGGTAACACAGGCTATCAT , and I need its recorded PBM binding z-score.
0.127

Consider next the sequence ACAGAGAGGTGAGTGAAGGTAACTCAGCTGGACG in the same way.
1.71

* * *

tested on: PPARg DBDmut:RXRa IVT, anti-PPARg (DBD mutation: PPARg1 K132A/R137A, NR concentration 270 nM, RXRa partner concentration 90 nM); experiment: PBM binding z-score (relative to random genomic background probes); higher = stronger binding; sequences stand for … in GC…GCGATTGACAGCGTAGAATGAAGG
Quick list: PBM binding z-score per entry.
Write the number on its own, no unit after it.

ATCGAGAGGTCGACGAGGTGAGTATACACCGTTT -0.00601
AATACAGGGTCAGTAGGCCAGAGTAGGTACGAAT 1.82
CCTTACGGGTCACTCCAGGTTAAAGCATCGGAGT -0.0185
TAGCCAAGGTCATGCGGGCCAGTATAGTGTCGGC 1.13
ACAGACAGGTAATGAAGGTAACTCAGGCTATCAT 0.213
TCTAGCAGGCCAGAGGGTCAATCAAGAGGTACGG -2.08

I have this sequence here, AGTCAAAGTTCATCTAGGTAACGTCAGATATGCT , and I need its recorded PBM binding z-score.
2.61

Consider next the sequence CTCGAAAAGTCGGTTGAGGTGAGTATACGGATAA in the same way.
-0.0972

Consider next the sequence ACTTACGGGTCAACGAGGTTATAGCACGCGTATA in the same way.
1.65

Consider next the sequence TCTCGGAAGACACGAAAGGTCAGAGCTCGACATC in the same way.
0.544

Consider next the sequence ACTATTAGTTGACGTAGGGCAACCGATACGACGC in the same way.
1.2

Consider next the sequence CCGCCTGGGGCAGAAAGGTTACCATACCATCCGG in the same way.
-1.12

Consider next the sequence CTCGAAGGGTCGGTTGAGGTGAGTATACGGATAA in the same way.
-0.346

Consider next the sequence ACTTTTAGTTGACTTAGGGCAACCGATACGACGC in the same way.
1.38

Consider next the sequence CCTCGTAGGACAGAAGGTCAGAGCTGTCCGCTTT in the same way.
-0.69

Consider next the sequence GCTGCTAGGTCAACTGACGGTCAGCTAAAGCTCG in the same way.
0.437

Consider next the sequence ATCGAAAGGTCGACGAGGTGAGTTTACACCGTTT in the same way.
1.01

Consider next the sequence CTCGAAAGGTCGTGCTCAGGTGAGAATACCAAAC in the same way.
0.151

Consider next the sequence CTTTACGGGTCACTCCAGGTTATAGCATCGGAGT in the same way.
1.34

Consider next the sequence ATATGTATGTTAGCTGGGGTCATTCAGACTAGGC in the same way.
1.51

* * *

system: PPARg:RXRa 270nM:90nM, anti-RXR (NR concentration 270 nM, RXRa partner concentration 90 nM); assay: PBM binding z-score (relative to random genomic background probes); higher = stronger binding; sequences stand for … in GC…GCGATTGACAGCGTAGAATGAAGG
Class yes: PBM binding z-score at least 3. Class no: PBM binding z-score below 3.

CGTCCAAGGTCATAGGAGGTCAGTGGAGACAGAT yes
TCATATAGGTAAAGGAGAAAGTCGAACGATATGA no
CCTTACGGGTCACTGAAAGGTTATAGCATTTGGA yes
CCTACTGGGCCATTCTGAGGTCATTGATCATATG no

Please tell me: is the sequence TCTCGGAGAACACGAAGGTCAGAGCTTTCCAGAG at or over 3 in terms of PBM binding z-score?
no

Consider next the sequence ATCGAAAGGTCGAAGGTGAGTAGACCCACCCGAA in the same way.
yes

Consider next the sequence CCGAATGGGGCAAGGTTACCATAACGCACAGCCA in the same way.
no

Consider next the sequence TGAATGAGGTTATAAGATCAGAGAACGTTGCAAA in the same way.
no

Consider next the sequence CCTATTAGTTGACCATAATGGCAACCGAAGCTCG in the same way.
no

Consider next the sequence CGTCCAAGGTCGAGGTCAGTGAAAGAGACTCGAA in the same way.
yes

* * *

system: LXRb homodimer (NR concentration 270 nM); assay: PBM binding z-score (relative to random genomic background probes); higher = stronger binding; sequences stand for … in GC…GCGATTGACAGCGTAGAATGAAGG
Class y: PBM binding z-score at least -0.1. Class n: PBM binding z-score below -0.1.

Please tell me: is the sequence TCATATAGGTAAAAGGTGAAACTCGGTGTGGTAA at or over -0.1 in terms of PBM binding z-score?
y

Consider next the sequence TCTTGTAGATCAATAGAGGTTAGGAAAGTGCGCT in the same way.
y

Consider next the sequence CCTATTAGTAGACCATAAGGGCAACCGAAGCTCG in the same way.
y
